Target: Adenosine receptor A2b (Homo sapiens, UniProt P29275)
Sequence (P29275 whole entry): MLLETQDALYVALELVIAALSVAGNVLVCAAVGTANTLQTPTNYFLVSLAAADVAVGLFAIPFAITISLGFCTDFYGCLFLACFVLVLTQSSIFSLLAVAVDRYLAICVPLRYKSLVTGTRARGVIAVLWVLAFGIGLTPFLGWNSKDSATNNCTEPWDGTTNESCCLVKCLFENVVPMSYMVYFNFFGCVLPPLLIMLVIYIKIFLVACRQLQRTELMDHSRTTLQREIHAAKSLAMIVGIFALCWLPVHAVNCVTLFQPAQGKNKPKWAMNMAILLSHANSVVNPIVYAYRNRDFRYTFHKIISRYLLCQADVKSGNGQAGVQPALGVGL
Experiment: Agonist activity at human adenosine A2B receptor expressed in CHO cells assessed as stimulation of cAMP production
Type: functional, cell-based
pEC50: −log10 of the molar value.

CHEM_SMILES: CCNC(=O)[C@H]1O[C@@H](n2cnc3c(Nc4ccc(OCC(=O)NC5CCCCC5)cc4)nc(Cl)nc32)[C@H](O)[C@@H]1O
pEC50: 6.52
//
CHEM_SMILES: CCNC(=O)[C@H]1O[C@@H](n2cnc3c(Nc4ccc(OCC(=O)Nc5ccccc5)cc4)ncnc32)[C@H](O)[C@@H]1O
pEC50: 8.14
//
CHEM_SMILES: CCNC(=O)[C@H]1O[C@@H](n2cnc3c(Nc4ccc(OCC(=O)Nc5ccc(OC)cc5)cc4)ncnc32)[C@H](O)[C@@H]1O
pEC50: 7.49
//
CHEM_SMILES: CCNC(=O)[C@H]1O[C@@H](n2cnc3c(Nc4ccc(OCC(=O)Nc5ccccc5C(F)(F)F)cc4)ncnc32)[C@H](O)[C@@H]1O
pEC50: 6.97
//
CHEM_SMILES: CCNC(=O)[C@H]1O[C@@H](n2cnc3c(Nc4ccc(OCC(=O)NC5CCCCC5)cc4)ncnc32)[C@H](O)[C@@H]1O
pEC50: 6.50
//
CHEM_SMILES: CCNC(=O)[C@H]1O[C@@H](n2cnc3c(Nc4ccc(OCC(=O)Nc5ccccc5)cc4)nc(Cl)nc32)[C@H](O)[C@@H]1O
pEC50: 7.37

* * *

Biological target: UniProt P29274
Sequence (P29274 whole entry): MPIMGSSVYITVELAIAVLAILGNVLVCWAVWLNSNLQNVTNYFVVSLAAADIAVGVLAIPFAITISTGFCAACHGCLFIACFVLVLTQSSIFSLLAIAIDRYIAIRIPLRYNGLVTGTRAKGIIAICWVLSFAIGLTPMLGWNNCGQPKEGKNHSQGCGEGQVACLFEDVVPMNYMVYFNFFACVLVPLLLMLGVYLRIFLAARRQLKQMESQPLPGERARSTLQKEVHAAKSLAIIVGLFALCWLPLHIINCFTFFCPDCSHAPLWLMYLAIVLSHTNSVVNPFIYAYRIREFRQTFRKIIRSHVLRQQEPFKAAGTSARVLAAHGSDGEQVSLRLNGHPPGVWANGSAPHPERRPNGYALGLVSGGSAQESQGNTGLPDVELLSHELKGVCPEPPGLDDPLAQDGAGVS
Test: Displacement of [3H]CGS-21680 from human adenosine A2A receptor expressed in CHO cells
Assay type: cell-based
Set-up: concentration or dose not given beside the values
MEASUREMENT_KIND: Activity (%)

CHEM_SMILES: CCNC(=O)[C@H]1O[C@@H](n2cnc3c(Nc4ccc(OCC(=O)Nc5ccncc5)cc4)ncnc32)[C@H](O)[C@@H]1O
EXPERIMENTAL_TARGET: UniProt P29274
MEAS_VALUE: 37
//
CHEM_SMILES: CCNC(=O)[C@H]1O[C@@H](n2cnc3c(Nc4ccc(OCC(=O)Nc5cc(OC)cc(OC)c5)cc4)ncnc32)[C@H](O)[C@@H]1O
EXPERIMENTAL_TARGET: UniProt P29274
MEAS_VALUE: 13
//
CHEM_SMILES: CCNC(=O)[C@H]1O[C@@H](n2cnc3c(Nc4ccc(OCC(=O)NC5CCCCC5)cc4)ncnc32)[C@H](O)[C@@H]1O
EXPERIMENTAL_TARGET: UniProt P29274
MEAS_VALUE: 40
//
CHEM_SMILES: CCNC(=O)[C@H]1O[C@@H](n2cnc3c(Nc4ccc(OCC(=O)NCc5ccccc5)cc4)ncnc32)[C@H](O)[C@@H]1O
EXPERIMENTAL_TARGET: UniProt P29274
MEAS_VALUE: 49
//
CHEM_SMILES: CCNC(=O)[C@H]1O[C@@H](n2cnc3c(Nc4ccc(OCC(=O)Nc5ccc(OC)cc5)cc4)nc(Cl)nc32)[C@H](O)[C@@H]1O
EXPERIMENTAL_TARGET: UniProt P29274
MEAS_VALUE: 27
//
CHEM_SMILES: CCNC(=O)[C@H]1O[C@@H](n2cnc3c(Nc4ccc(OCC(=O)Nc5ccccc5)cc4)ncnc32)[C@H](O)[C@@H]1O
EXPERIMENTAL_TARGET: UniProt P29274
MEAS_VALUE: 45
//
CHEM_SMILES: CCNC(=O)[C@H]1O[C@@H](n2cnc3c(Nc4ccc(OCC(=O)Nc5ccc(OC)cc5)cc4)ncnc32)[C@H](O)[C@@H]1O
EXPERIMENTAL_TARGET: UniProt P29274
MEAS_VALUE: 42
